- assayed-target: Env of the clade D HIV-1 pseudoviruses of the cross-clade 162-pseudovirus panel (n = 25)
- assay-comment: cell-based or functional assay
Record form. Attribute: Median IC50 against viruses neutralized with an IC50 <50 µg/ml. Fill in for each entry.
Form entry: value (µg/mL) — number only.

// PGT-126 (antibody, V domains shown) VH: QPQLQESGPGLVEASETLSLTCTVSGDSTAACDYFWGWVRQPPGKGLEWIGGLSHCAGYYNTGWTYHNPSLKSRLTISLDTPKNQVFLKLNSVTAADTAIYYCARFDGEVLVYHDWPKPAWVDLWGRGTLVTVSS VL: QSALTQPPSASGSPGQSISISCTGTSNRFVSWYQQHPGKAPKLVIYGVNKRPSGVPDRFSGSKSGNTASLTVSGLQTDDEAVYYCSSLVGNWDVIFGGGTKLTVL : Median IC50 against viruses neutralized with an IC50 <50 µg/ml value = 0.04

// PGT-130 (antibody, V domains shown) VH: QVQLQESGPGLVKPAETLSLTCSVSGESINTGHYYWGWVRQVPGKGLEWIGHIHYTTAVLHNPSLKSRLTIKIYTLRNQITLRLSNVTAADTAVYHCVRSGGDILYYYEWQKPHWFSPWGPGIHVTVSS VL: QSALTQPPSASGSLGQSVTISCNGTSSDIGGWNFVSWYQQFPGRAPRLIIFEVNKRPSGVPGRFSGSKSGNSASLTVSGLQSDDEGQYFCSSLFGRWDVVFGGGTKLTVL : Median IC50 against viruses neutralized with an IC50 <50 µg/ml value = 0.65

// PGT-131 (antibody, V domains shown) VH: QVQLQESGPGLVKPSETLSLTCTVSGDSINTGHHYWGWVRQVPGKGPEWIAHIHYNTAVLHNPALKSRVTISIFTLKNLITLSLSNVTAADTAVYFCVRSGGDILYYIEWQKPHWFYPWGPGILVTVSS VL: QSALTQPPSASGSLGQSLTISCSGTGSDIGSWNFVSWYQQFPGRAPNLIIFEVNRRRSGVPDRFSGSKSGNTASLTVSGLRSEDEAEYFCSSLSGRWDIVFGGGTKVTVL : Median IC50 against viruses neutralized with an IC50 <50 µg/ml value = 0.85
